Values were extracted from PubChem BioAssay (NCI).

# Test system: A549 NSCLC
# test details: NCI tumour cell line growth inhibition, 48 h

[
  {
    "compound": "c1ccc(CCN2CCOCC2)nc1",
    "assayed target": "A549 NSCLC",
    "TGI": "> 100 µM"
  },
  {
    "compound": "Cc1cn([C@H]2C[C@@H]3[C@@H](COC(CCl)N3O)O2)c(=O)[nH]c1=O (stereo partly drawn)",
    "assayed target": "A549 NSCLC",
    "TGI": "> 100 µM"
  },
  {
    "compound": "CCC1c2[nH]c3ccccc3c2C[C@H]2C(=O)N3CCC[C@H]3C(=O)N12 (stereo partly drawn)",
    "assayed target": "A549 NSCLC",
    "TGI": "> 100 µM"
  },
  {
    "compound": "O=C(Nc1sccc1S(=O)(=O)c1ccc(Cl)cc1)c1ccccc1",
    "assayed target": "A549 NSCLC",
    "TGI": "> 100 µM"
  },
  {
    "compound": "NCCCCN(CCCN)Cc1ccc2ccccc2c1",
    "assayed target": "A549 NSCLC",
    "TGI": "> 100 µM"
  },
  {
    "compound": "C=CC[C@@H]1/C=C(\\C)C[C@H](C)C[C@H](OC)[C@H]2O[C@@](O)(C(=O)C(=O)N3CCCC[C@H]3C(=O)O[C@H](/C(C)=C/C3CC[C@@H](O)[C@H](OC)C3)[C@H](C)[C@@H](O)CC1=O)[C@H](C)C[C@@H]2OC (stereo partly drawn)",
    "assayed target": "A549 NSCLC",
    "TGI": "25.7 µM"
  },
  {
    "compound": "CN(C)C1=NC2=S(SC(Nc3ccccc3)=N2)S1 (stereo not drawn)",
    "assayed target": "A549 NSCLC",
    "TGI": "47.2 µM"
  },
  {
    "compound": "CCOC(=O)c1c(Cl)c2c(n1Cc1cccc(OC)c1)-c1oncc1CC2",
    "assayed target": "A549 NSCLC",
    "TGI": "> 100 µM"
  },
  {
    "compound": "O=C(NC1CCCCC1)NS(=O)(=O)c1ccc(-n2nc3c(c2-c2ccc(Cl)cc2)Cc2ccccc2-3)cc1",
    "assayed target": "A549 NSCLC",
    "TGI": "34.6 µM"
  },
  {
    "compound": "O=C1NC(c2c(Cl)cccc2Cl)Nc2ccccc21 (stereo not drawn)",
    "assayed target": "A549 NSCLC",
    "TGI": "> 100 µM"
  },
  {
    "compound": "CCOC1(OCC)N=C(N)C2(C#N)C3(C(=O)N(C(C)C)N=C3C)C12C#N (stereo not drawn)",
    "assayed target": "A549 NSCLC",
    "TGI": "> 100 µM"
  },
  {
    "compound": "Cc1c2cc[n+](C)cc2c(C)c2c1[nH]c1ccc(Cl)cc12",
    "assayed target": "A549 NSCLC",
    "TGI": "4.15 µM"
  },
  {
    "compound": "O=C1OC(c2ccccc2)=N/C1=C\\c1cc(Cl)ccc1Cl",
    "assayed target": "A549 NSCLC",
    "TGI": "> 100 µM"
  },
  {
    "compound": "COC1=CC(c2ccc[nH]2)=N/C1=C\\c1[nH]c(C)c(C(C)=O)c1C",
    "assayed target": "A549 NSCLC",
    "TGI": "> 44.8 µM"
  },
  {
    "compound": "CC[C@@H]1CC[C@@H]2[C@H](CC[C@]3(C)[C@@H](O)CC[C@@H]23)[C@H]1CO",
    "assayed target": "A549 NSCLC",
    "TGI": "> 100 µM"
  },
  {
    "compound": "N#Cc1cc(N(CCCl)CCCl)c([N+](=O)[O-])cc1[N+](=O)[O-]",
    "assayed target": "A549 NSCLC",
    "TGI": "> 100 µM"
  },
  {
    "compound": "Cc1sc(NC2=NC(=O)/C(=C\\c3ccccc3)S2)nc1-c1nc(NC2=NC(=O)/C(=C\\c3ccccc3)S2)sc1C",
    "assayed target": "A549 NSCLC",
    "TGI": "> 39.6 µM"
  },
  {
    "compound": "Cc1sc(Nc2ccccc2[N+](=O)[O-])c(C#N)c1C",
    "assayed target": "A549 NSCLC",
    "TGI": "> 100 µM"
  },
  {
    "compound": "CC1(C)N=C(N)N=C(N)N1c1cccc(CCCCOc2ccccc2)c1",
    "assayed target": "A549 NSCLC",
    "TGI": "98.8 µM"
  },
  {
    "compound": "CCC(CCN)(CCN)[N+](=O)[O-]",
    "assayed target": "A549 NSCLC",
    "TGI": "> 100 µM"
  },
  {
    "compound": "CCCNC(=O)Cn1c(C)cc2ccccc21",
    "assayed target": "A549 NSCLC",
    "TGI": "> 100 µM"
  },
  {
    "compound": "CSc1ccc(-c2cc(-c3nc4ccccc4[nH]3)nc(N)c2C#N)cc1",
    "assayed target": "A549 NSCLC",
    "TGI": "> 100 µM"
  },
  {
    "compound": "COc1cccc(Cn2c(-c3nonc3NC(C)=O)nc3ccccc32)c1",
    "assayed target": "A549 NSCLC",
    "TGI": "> 100 µM"
  }
]
